# Tested on: aptamer # 13_82 (DNA, aptamer) ATACCAGCTTATTCAATTCAGGGCGGTATGAGGCTCGATCAAGGTCGGAGCGAGAATTTTTTCGCGGAGTCGGCTGGATCAGATAGTAAGTGCAATCT
# method summary: bead fluorescence release assay
# assay setup: 100 mM Na+, 5 mM K+, 2 mM Mg2+, 1 mM Ca2+; 20 mM Tris-HCl pH 7.6, 21 °C; 1 mM compound; release from capture oligo iODN2Sp; single concentration
We begin with a simple list: items and their reported amount of eluted aptamer DNA.
A number alone suffices; assume pmol.

smiles_input=NC[C@H]1O[C@H](O[C@H]2[C@H](O)[C@@H](O[C@H]3O[C@H](CO)[C@@H](O)[C@H](N)[C@H]3O)[C@H](N)C[C@@H]2N)[C@H](N)C[C@@H]1O recorded_result=2.78

Quick one: amount of eluted aptamer DNA of "NC[C@H]1O[C@H](O[C@H]2[C@H](O)[C@@H](O[C@H]3O[C@H](CO)[C@@H](O)[C@H](N)[C@H]3O)[C@H](N)C[C@@H]2N)[C@H](O)[C@@H](O)[C@@H]1O" ? 6.85

Please give the measured amount of eluted aptamer DNA for this molecule: "CN[C@@H]1[C@@H](O[C@H]2O[C@H](CO)[C@@H](N)[C@H](O)[C@H]2O)O[C@H]2C[C@@H](N)[C@@H](O[C@H]3[C@H](O)[C@@H](O)[C@H](N)C[C@@H]3N)O[C@@H]2[C@@H]1O" 3.40

Look at this molecule and give its reported amount of eluted aptamer DNA. "NC[C@H]1O[C@H](O[C@H]2[C@H](O)[C@@H](O[C@H]3O[C@H](CO)[C@@H](O)[C@H](N)[C@H]3O)[C@H](N)C[C@@H]2N)[C@H](N)[C@@H](O)[C@@H]1O" 7.22

Bench note: what amount of eluted aptamer DNA did "CCN[C@@H]1C[C@H](N)[C@@H](O[C@H]2OC(CN)=CC[C@H]2N)[C@H](O)[C@H]1O[C@H]1OC[C@](C)(O)[C@H](NC)[C@H]1O" show? 1.01
